Biological target: CK2α (Homo sapiens, UniProt P68400)
Please assign FALSE whenever Kd is at or above 40 µM, and TRUE whenever it is below.

Look over these answered cases.
[
  {
    "chemical.string": "O=C(OCC1CCN(CCNS(=O)(=O)c2ccccc2)CC1)c1c[nH]c2ccc(F)cc12",
    "cat": "FALSE"
  },
  {
    "chemical.string": "CS(=O)(=O)NCCN1CCC(COC(=O)c2c[nH]c3ccccc23)CC1",
    "cat": "FALSE"
  },
  {
    "chemical.string": "COc1[nH]c2ccc(F)cc2c1C(=O)OCC1CCN(CCNS(=O)(=O)c2ccccc2)CC1.Cl",
    "cat": "TRUE"
  }
]

From here, focus on the item given below.
Query: Is the reported Kd for CS(=O)(=O)NCCN1CCC(COC(=O)c2c[nH]c3ccc(F)cc23)CC1 strictly below 40 µM?
Response: FALSE

----------
Kindly supply the reported inhibition at 50 µM values for the records listed here.
Molecular target: CK2α2β2 holoenzyme (Homo sapiens, UniProt P68400)
Construct: made in house; host or cells: Escherichia coli (CK2α)
Sequence (P68400 whole entry): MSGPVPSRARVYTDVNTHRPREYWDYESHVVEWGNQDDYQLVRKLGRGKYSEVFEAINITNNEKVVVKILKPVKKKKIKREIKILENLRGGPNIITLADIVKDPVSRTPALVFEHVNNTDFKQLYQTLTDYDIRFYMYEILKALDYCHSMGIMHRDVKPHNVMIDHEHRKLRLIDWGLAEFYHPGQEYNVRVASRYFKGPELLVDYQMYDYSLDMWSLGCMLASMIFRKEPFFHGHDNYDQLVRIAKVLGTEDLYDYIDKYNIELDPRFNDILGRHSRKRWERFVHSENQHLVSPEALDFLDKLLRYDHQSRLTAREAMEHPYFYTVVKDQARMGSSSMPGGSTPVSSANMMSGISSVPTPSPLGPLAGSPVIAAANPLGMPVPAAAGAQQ
Assay: CK2 kinase assay with CK2β-dependent peptide substrate (eIF2-derived)
Assay type: biochemical
Details: compound at 50 μM; CK2β-dependent peptide substrate
Answers are plain numbers, in %.

[
  {
    "chemical.string": "CS(=O)(=O)NCCN1CCC(COC(=O)c2c[nH]c3ccc(F)cc23)CC1",
    "inhibition at 50 µM [%]": 25
  }
]

Dear reader, for each entry below, please note its inhibition at 50 µM.
1. O=C(OCC1CCN(CCNS(=O)(=O)c2ccccc2)CC1)c1c[nH]c2ccc(F)cc12
2. CS(=O)(=O)NCCN1CCC(COC(=O)c2c[nH]c3ccccc23)CC1
3. COc1[nH]c2ccc(F)cc2c1C(=O)OCC1CCN(CCNS(C)(=O)=O)CC1
4. O=C(OCC1CCN(CCNS(=O)(=O)c2ccccc2)CC1)c1c[nH]c2ccccc12

Response:
1. 66
2. 28
3. 48
4. 57

----------
Target: CK2α2β2 holoenzyme (Homo sapiens)
Assay: CK2 kinase assay with CK2β-dependent peptide substrate (eIF2-derived)
Details: phosphorylation of CK2β-dependent peptide substrate
measured.metric: pIC50
Numbers only, as −log10 of the molar value.

Query: Which pIC50 value belongs to O=C(OCC1CCN(CCNS(=O)(=O)c2ccccc2)CC1)c1c[nH]c2ccccc12 [Compound 4] ?
Response: 4.35
